The measurements presented in this section are drawn from patent US9868727B2.

Biological target: purified human Factor XIa (Homo sapiens, UniProt P03951)
Sequence (P03951 388-625 limits assumed): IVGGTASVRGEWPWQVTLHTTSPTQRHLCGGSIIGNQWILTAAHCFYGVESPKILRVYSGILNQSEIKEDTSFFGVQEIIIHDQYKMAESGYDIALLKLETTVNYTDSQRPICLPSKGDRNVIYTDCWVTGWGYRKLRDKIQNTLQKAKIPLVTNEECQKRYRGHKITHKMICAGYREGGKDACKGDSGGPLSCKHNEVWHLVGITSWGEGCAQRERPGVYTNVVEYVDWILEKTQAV
Sequence (P03951 19-387 partner limits assumed): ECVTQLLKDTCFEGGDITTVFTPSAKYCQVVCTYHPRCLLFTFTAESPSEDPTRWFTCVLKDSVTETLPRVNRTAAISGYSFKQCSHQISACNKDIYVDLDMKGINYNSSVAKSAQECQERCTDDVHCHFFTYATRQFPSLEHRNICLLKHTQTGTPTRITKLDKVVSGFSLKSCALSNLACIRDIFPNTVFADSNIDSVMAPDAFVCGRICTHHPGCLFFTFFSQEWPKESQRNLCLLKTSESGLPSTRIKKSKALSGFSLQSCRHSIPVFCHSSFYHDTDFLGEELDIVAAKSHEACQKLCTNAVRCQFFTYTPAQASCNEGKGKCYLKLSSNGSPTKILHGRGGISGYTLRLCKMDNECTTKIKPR
pIC50: −log10 of the molar value.
Readout: pIC50

- O=C(O)c1ccc(-c2cnc(C(CC3CC3)c3ccc(-c4cc(Cl)ccc4-n4cnnn4)c[n+]3[O-])[nH]2)cc1 (single isomer, unassigned): 6.23
- [O-][n+]1cc(-c2cc(Cl)ccc2-n2cnnn2)ccc1C(Cc1ccccc1)c1nc(-c2cccc(F)c2)c[nH]1 (single isomer, unassigned) [Example 4]: 7.41
- N#Cc1cccc(-c2cnc(C(CC3CC3)c3ccc(-c4cc(Cl)ccc4-n4cnnn4)c[n+]3[O-])[nH]2)c1 (single isomer, unassigned): 6.00
- O=C(O)c1ccc(-c2cnc(C(Cc3ccccc3)c3ccc(-c4cc(Cl)ccc4-n4cnnn4)c[n+]3[O-])[nH]2)cc1 (single isomer, unassigned) [Example 7]: 7.99

[I] [O-][n+]1cc(-c2cc(Cl)ccc2-n2cnnn2)ccc1C(CC1CC1)c1ncc(-c2cccc(F)c2)[nH]1 (single isomer, unassigned) [Example 31]
[II] COC(=O)Nc1ccc(-c2c[nH]c(C(Cc3ccc(F)cc3)c3ccc(-c4cc(Cl)ccc4C(F)F)c[n+]3[O-])n2)cc1 (single isomer, unassigned)
## Task // compare: I vs II , metric pIC50, want the smaller State your choice using its label.
## Result I
(I: 6.00, II: 6.47)

[1] N#Cc1ccc(-c2c[nH]c(C(Cc3ccc(F)cc3)c3ccc(-c4cc(Cl)ccc4-n4cnnn4)c[n+]3[O-])n2)cc1 (single isomer, unassigned)
[2] COC(=O)c1scc(-c2cnc(C(CC3CC3)c3ccc(-c4cc(Cl)ccc4-n4cnnn4)c[n+]3[O-])[nH]2)c1F (single isomer, unassigned)
## Task // compare: 1 vs 2 , metric pIC50, want the smaller State your choice using its label.
## Result 2
(2: 6.00, 1: 6.51)

[A] COC(=O)Nc1ccc(-c2cnc(C(CC3CC3)c3ccc(-c4cc(Cl)ccc4-n4cnnn4)c[n+]3[O-])[nH]2)c(F)c1 (single isomer, unassigned)
[B] NC(=O)c1scc(-c2cnc(C(CC3CC3)c3ccc(-c4cc(Cl)ccc4-n4cnnn4)c[n+]3[O-])[nH]2)c1F (single isomer, unassigned)
[C] COC(=O)Nc1ccc(-c2cnc(C(CC3CC3)c3ccc(-c4cc(Cl)ccc4-n4cnnn4)c[n+]3[O-])[nH]2)c(C)c1 (single isomer, unassigned)
## Task Hello, I need these entries ordered by pIC50, highest reading first. Thanks! Use the labels to give the ranking in the order requested.
## Result C, B, A
(C: 9.62, B: 8.31, A: 7.13)

====

Biological target: purified Human plasma kallikrein (Homo sapiens)
Construct: yields a heavy chain (371 amino acids) and a light chain (248 amino acids); purchased Enzyme Research Laboratories
Experiment: Kallikrein Assay
Format: biochemical
Conditions: Plasma Kallekrein IC50; fluorogenic substrate Acetyl-K-P-R-AFC, 0.5 nM enzyme, pH 7.4; read-out: PK IC50
pIC50: −log10 of the molar value.
Readout: pIC50

Below, each entry is followed by its recorded pIC50 result.
- COC(=O)c1scc(-c2cnc(C(CC3CC3)c3ccc(-c4cc(Cl)ccc4-n4cnnn4)c[n+]3[O-])[nH]2)c1F (single isomer, unassigned): 6.46
- COC(=O)Nc1ccc(-c2cnc(C(CC3(C)CC3)c3ccc(-c4cc(Cl)ccc4-n4cnnn4)c[n+]3[O-])[nH]2)cc1 (single isomer, unassigned) [Example 44]: 7.83
- COC(=O)Nc1ccc(-c2cnc(C(CC3CC3)c3ccc(-c4cc(Cl)ccc4-n4cnnn4)c[n+]3[O-])[nH]2)c(Cl)c1 (single isomer, unassigned) [Example 41]: 6.40

[1] COC(=O)Nc1ccc(-c2c[nH]c(C(Cc3ccccc3)c3ccc(-c4c(F)ccc(Cl)c4F)c[n+]3[O-])n2)cc1 (single isomer, unassigned)
[2] COC(=O)Nc1ccc(-c2cnc(C(CC3(C)CC3)c3ccc(-c4cc(Cl)ccc4-n4cnnn4)c[n+]3[O-])[nH]2)cc1 (single isomer, unassigned) [Example 43]
[3] COC(=O)Nc1ccc(-c2cnc(C(CC3CC3)c3ccc(-c4cc(Cl)ccc4-n4cnnn4)c[n+]3[O-])[nH]2)cc1F (single isomer, unassigned)
[4] [O-][n+]1cc(-c2cc(Cl)ccc2-n2cnnn2)ccc1C(CC1CC1)c1ncc(-c2cccc(F)c2)[nH]1 (single isomer, unassigned)
[5] COC(=O)Nc1ccc(-c2c[nH]c(C(Cc3ccc(F)cc3)c3ccc(-c4cc(Cl)ccc4C(F)F)c[n+]3[O-])n2)cc1 (single isomer, unassigned)
## Task Reorder the items by pIC50, least to greatest. Use the labels to give the ranking in the order requested.
## Result 2, 4, 1, 3, 5
(2: 6.05, 4: 6.37, 1: 6.86, 3: 7.41, 5: 8.00)

[a] O=C(O)c1ccc(-c2cnc(C(CC3CC3)c3ccc(-c4cc(Cl)ccc4-n4cnnn4)c[n+]3[O-])[nH]2)cc1 (single isomer, unassigned)
[b] COC(=O)Nc1ccc(-c2c[nH]c(C(Cc3ccc(F)cc3)c3ccc(-c4c(C(F)F)ccc(Cl)c4F)c[n+]3[O-])n2)cc1 (racemic)
## Task // compare: a vs b , metric pIC50, want the smaller State your choice using its label.
## Result a
(a: 6.62, b: 7.99)

====

Target: purified Human plasma kallikrein (Homo sapiens, UniProt P03952)
Construct: yields a heavy chain (371 amino acids) and a light chain (248 amino acids)
Sequence (P03952 391-638 limits assumed): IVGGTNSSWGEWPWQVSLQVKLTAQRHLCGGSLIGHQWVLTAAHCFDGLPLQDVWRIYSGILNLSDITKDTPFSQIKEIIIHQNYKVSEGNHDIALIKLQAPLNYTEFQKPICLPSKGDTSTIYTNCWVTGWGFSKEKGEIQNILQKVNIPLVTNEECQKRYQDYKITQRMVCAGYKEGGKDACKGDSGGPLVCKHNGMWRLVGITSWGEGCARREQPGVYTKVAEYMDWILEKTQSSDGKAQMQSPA
Sequence (P03952 20-390 partner limits assumed): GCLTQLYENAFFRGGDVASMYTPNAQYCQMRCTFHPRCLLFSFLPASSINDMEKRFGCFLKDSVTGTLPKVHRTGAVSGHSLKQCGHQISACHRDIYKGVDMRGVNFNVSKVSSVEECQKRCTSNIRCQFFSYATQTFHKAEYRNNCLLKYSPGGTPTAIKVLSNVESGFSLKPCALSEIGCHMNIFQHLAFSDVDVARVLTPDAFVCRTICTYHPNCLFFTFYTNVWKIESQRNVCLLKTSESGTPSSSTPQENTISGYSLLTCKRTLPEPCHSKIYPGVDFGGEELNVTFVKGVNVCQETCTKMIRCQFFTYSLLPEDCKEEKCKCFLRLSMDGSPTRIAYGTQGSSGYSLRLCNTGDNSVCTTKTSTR
Assay: Kallikrein Assay
Conditions: Plasma Kallekrein IC50; fluorogenic substrate Acetyl-K-P-R-AFC, 0.5 nM enzyme, pH 7.4; read-out: PK IC50
pIC50: −log10 of the molar value.
Readout: pIC50

• [O-][n+]1cc(-c2cc(Cl)ccc2-n2cnnn2)ccc1C(Cc1ccc(F)cc1)c1nc(-c2ccc(Cl)cc2)c[nH]1 (single isomer, unassigned) = 6.71
• COC(=O)Nc1ccc(-c2cnc([C@H](Cc3ccccc3)c3ccc(-c4c(-n5cnnn5)ccc(Cl)c4F)c[n+]3[O-])[nH]2)cc1 = 8.81
• COC(=O)Nc1ccc(-c2cnc(C(CC3CC3)c3ccc(-c4cc(Cl)ccc4-n4cnnn4)c[n+]3[O-])[nH]2)c(F)c1 (single isomer, unassigned) = 7.41

[1] O=C(O)c1ccc(-c2cnc(C(Cc3ccccc3)c3ccc(-c4cc(Cl)ccc4-n4cnnn4)c[n+]3[O-])[nH]2)cc1 (single isomer, unassigned) [Example 7]
[2] Nc1ccc(-c2c[nH]c(C(CC3CC3)c3ccc(-c4cc(Cl)ccc4-n4cnnn4)c[n+]3[O-])n2)cn1 (single isomer, unassigned) [Example 49]
## Task // compare: 1 vs 2 , metric pIC50, want the smaller State your choice using its label.
## Result 2

====

Molecular target: purified human Factor XIa (Homo sapiens)
pIC50: −log10 of the molar value.
Readout: pIC50

Below, each entry is followed by its recorded pIC50 result.
- COC(=O)Nc1ccc(-c2cnc(C(CC3(C)CC3)c3ccc(-c4cc(Cl)ccc4-n4cnnn4)c[n+]3[O-])[nH]2)cc1 (single isomer, unassigned) [Example 44]: 8.82
- COC(=O)Nc1ccc(-c2cnc([C@H](Cc3ccccc3)c3ccc(-c4cc(Cl)ccc4-c4cnco4)c[n+]3[O-])[nH]2)cc1 [Example 25]: 8.48
- COC(=O)Nc1ccc(-c2nc([C@@H](Cc3ccccc3)c3ccc(-c4cc(Cl)ccc4-n4cnnn4)c[n+]3[O-])[nH]c2Cl)cc1 [Example 2]: 8.55
- COC(=O)Nc1ccc(-c2cnc(C(CC3CC3)c3ccc(-c4cc(Cl)ccc4-c4cnco4)c[n+]3[O-])[nH]2)cc1 (single isomer, unassigned) [Example 69]: 7.32
- COC(=O)Nc1ccc(-c2cnc(C(CC3CC3)c3ccc(-c4cc(Cl)ccc4-n4cnnn4)c[n+]3[O-])[nH]2)cc1F (single isomer, unassigned) [Example 40]: 8.82
- O=C(O)c1ccc(-c2cnc(C(Cc3ccccc3)c3ccc(-c4cc(Cl)ccc4-n4cnnn4)c[n+]3[O-])[nH]2)cc1 (single isomer, unassigned) [Example 8]: 9.17
- CC(C)OC(=O)Nc1ccc(-c2cnc(C(CC3CC3)c3ccc(-c4cc(Cl)ccc4-n4cnnn4)c[n+]3[O-])[nH]2)cc1 (racemic) [Example 46]: 8.54
- O=C(O)c1scc(-c2cnc(C(CC3CC3)c3ccc(-c4cc(Cl)ccc4-n4cnnn4)c[n+]3[O-])[nH]2)c1F (single isomer, unassigned) [Example 57]: 8.82
- COC(=O)Nc1ccc(-c2c[nH]c(C(Cc3ccc(F)cc3)c3ccc(-c4c(C#N)ccc(Cl)c4F)c[n+]3[O-])n2)cc1 (racemic) [Example 14]: 7.22

[P] Nc1ccc(-c2cnc(C(CC3CC3)c3ccc(-c4cc(Cl)ccc4-n4cnnn4)c[n+]3[O-])[nH]2)c(Cl)n1 (single isomer, unassigned) [Example 48]
[Q] [O-][n+]1cc(-c2cc(Cl)ccc2-n2cnnn2)ccc1C(Cc1ccccc1)c1nc(-c2cccc(F)c2)c[nH]1 (single isomer, unassigned) [Example 3]
[R] COC(=O)Nc1ccc(-c2nnc(C(Cc3ccccc3)c3ccc(-c4cc(Cl)ccc4-n4cnnn4)c[n+]3[O-])o2)cc1 (racemic) [Example 83]
## Task Reorder the items by pIC50, least to greatest. Use the labels to give the ranking in the order requested.
## Result P, Q, R
(P: 7.14, Q: 8.54, R: 8.92)
